Biological target: Rhomboid protease GlpG (Escherichia coli (strain K12))
Sequence (P09391 whole entry): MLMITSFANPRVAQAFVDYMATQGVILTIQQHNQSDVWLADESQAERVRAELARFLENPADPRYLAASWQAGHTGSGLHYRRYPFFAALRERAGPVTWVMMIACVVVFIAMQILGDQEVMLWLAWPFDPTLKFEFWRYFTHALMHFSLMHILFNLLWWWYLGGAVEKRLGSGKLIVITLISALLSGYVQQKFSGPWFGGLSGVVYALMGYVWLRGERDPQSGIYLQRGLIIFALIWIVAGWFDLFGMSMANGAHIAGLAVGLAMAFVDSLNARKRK
Test: Inhibition of Escherichia coli GlpG extracted from Escherichia coli C43(DE3) using KSp96 as substrate incubated for 1 hr by fluorescence based assay
Starred links: 1 amine or outer side, 2 acyl side, 3 side chain; linkers in the order of their positions; H or OH if unused. Non-standard residues stand in square brackets, D forms with d. Residues, ends and D or L forms follow the SMILES beside them. *: point of attachment. Pheol(OBn) = c1ccc(COC[C@H](Cc2ccccc2)N*)cc1; NH(4-phenylbutyl) = c1ccc(CCCCN*)cc1; X1 = C[C@H](N[*:1])C(=O)C(=O)[*:2]
value type: IC50 (nM)

Before answering, review these 6 worked examples.
[[record]]
molecule = "CC(=O)N[C@@H](C)C(=O)N[C@H](C(=O)N[C@@H](Cc1ccccc1)C(=O)N[C@@H](CC(C)C)C(=O)N[C@@H](C)C(=O)C(=O)N[C@H](COCc1ccccc1)Cc1ccccc1)C(C)C (Ac-AVFL[X1]-{Pheol(OBn)})"
value_measured = 14.8

[[record]]
molecule = "CC(=O)N[C@@H](C)C(=O)N[C@H](C(=O)N[C@@H](Cc1ccccc1)C(=O)N[C@@H](CC(C)C)C(=O)N[C@@H](C)C(=O)C(=O)NCCCCc1ccccc1)C(C)C (Ac-AVFL[X1]-{NH(4-phenylbutyl)})"
value_measured = 300

[[record]]
molecule = "CC(=O)N1CCC[C@H]1C(=O)N[C@H](C(=O)N[C@@H](C)C(=O)N[C@@H](CCCCN)C(=O)N[C@@H](C)C(=O)C(=O)NCCCCc1ccccc1)C(C)C (Ac-PVAK[X1]-{NH(4-phenylbutyl)})"
value_measured = 330

[[record]]
molecule = "CC(=O)N[C@H](C(=O)N[C@@H](CCCNC(=N)N)C(=O)N[C@@H](Cc1c[nH]cn1)C(=O)N[C@@H](C)C(=O)C(=O)NCCCCc1ccccc1)C(C)C"
value_measured = 44.4

[[record]]
molecule = "CC(=O)N[C@H](C(=O)N[C@@H](CCCNC(=N)N)C(=O)N[C@@H](Cc1c[nH]cn1)C(=O)N[C@@H](C)C(=O)C(=O)NC(CCCc1ccccc1)Cc1ccccc1)C(C)C (mixture of isomers)"
value_measured = 2.3

[[record]]
molecule = "CC(=O)N[C@H](C(=O)N[C@@H](CCCNC(=N)N)C(=O)N[C@@H](Cc1c[nH]cn1)C(=O)N[C@@H](C)C(=O)C(=O)N[C@H](COCc1ccccc1)Cc1ccccc1)C(C)C"
value_measured = 2.5


a = C[C@H](NC(=O)[C@H](Cc1c[nH]cn1)NC(=O)[C@H](CCCNC(=N)N)NC(=O)CCc1ccccc1)C(=O)C(=O)N[C@H](COCc1ccccc1)Cc1ccccc1
b = CC(=O)N[C@H](C(=O)N[C@@H](CCCNC(=N)N)C(=O)N[C@@H](Cc1c[nH]cn1)C(=O)N[C@@H](C)C(=O)C(=O)NCCc1ccccc1)C(C)C
c = CC(=O)N1CCC[C@H]1C(=O)N[C@H](C(=O)N[C@@H](C)C(=O)N[C@@H](CCCCN)C(=O)N[C@@H](C)C(=O)C(=O)N[C@H](COCc1ccccc1)Cc1ccccc1)C(C)C (Ac-PVAK[X1]-{Pheol(OBn)})
Arrange by IC50, high to low. Provide your answer as the labels ordered per the instruction.
b, c, a
(b: 56.1 nM, c: 5.6 nM, a: 2 nM)

###

Target: Presenilin-associated rhomboid-like protein, mitochondrial (Homo sapiens, UniProt Q9H300)
Sequence (Q9H300 whole entry): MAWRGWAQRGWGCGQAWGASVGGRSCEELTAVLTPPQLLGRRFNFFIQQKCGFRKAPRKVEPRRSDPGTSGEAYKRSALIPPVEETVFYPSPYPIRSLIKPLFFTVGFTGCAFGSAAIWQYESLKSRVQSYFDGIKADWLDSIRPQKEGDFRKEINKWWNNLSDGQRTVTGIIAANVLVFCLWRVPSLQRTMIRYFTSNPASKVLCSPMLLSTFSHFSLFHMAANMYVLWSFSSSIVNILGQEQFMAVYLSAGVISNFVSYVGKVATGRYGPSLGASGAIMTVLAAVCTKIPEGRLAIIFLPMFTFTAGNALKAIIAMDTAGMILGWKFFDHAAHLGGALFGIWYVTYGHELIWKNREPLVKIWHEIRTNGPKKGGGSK
Experiment: Inhibition of tetracycline-inducible FLAG-tagged human PARL stably transfected in HEK293T harboring FITR/PARL KO
Starred links: 1 amine or outer side, 2 acyl side, 3 side chain; linkers in the order of their positions; H or OH if unused. Non-standard residues stand in square brackets, D forms with d. Residues, ends and D or L forms follow the SMILES beside them. *: point of attachment. NH(4-phenylbutyl) = c1ccc(CCCCN*)cc1; X1 = C[C@H](N[*:1])C(=O)C(=O)[*:2]
value type: EC50 (µM)
Write down the numeric answer in µM and omit the unit.

Request - read-out EC50 | tested on Presenilin-associated rhomboid-like protein, mitochondrial (Homo sapiens, UniProt Q9H300) | molecule CC(=O)N[C@@H](C)C(=O)N[C@H](C(=O)N[C@@H](Cc1ccccc1)C(=O)N[C@@H](CC(C)C)C(=O)N[C@@H](C)C(=O)C(=O)NCCCCc1ccccc1)C(C)C (Ac-AVFL[X1]-{NH(4-phenylbutyl)})
0.445

###

Target: Rhomboid protease GlpG (Escherichia coli (strain K12), UniProt P09391)
Sequence (P09391 whole entry): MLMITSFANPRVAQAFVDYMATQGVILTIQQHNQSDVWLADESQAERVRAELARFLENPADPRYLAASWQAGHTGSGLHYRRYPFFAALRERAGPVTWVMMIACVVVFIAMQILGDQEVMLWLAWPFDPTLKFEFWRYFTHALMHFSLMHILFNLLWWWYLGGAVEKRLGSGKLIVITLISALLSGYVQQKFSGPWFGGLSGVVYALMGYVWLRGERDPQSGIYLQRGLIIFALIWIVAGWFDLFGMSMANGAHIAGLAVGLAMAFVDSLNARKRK
Assay: Inhibition of GlpG in wild-type Escherichia coli MC4100 using MBP-Flag-LacYTMD2-Trx as substrate
value type: EC50 (nM)

[[record]]
molecule = "CCCCc1ccc(OCC[C@H](Cc2ccccc2)NC(=O)C(=O)[C@H](C)NC(=O)[C@H](Cc2c[nH]cn2)NC(=O)[C@H](CCCNC(=N)N)NC(=O)[C@@H](NC(C)=O)C(C)C)cc1"
target_desc = "Rhomboid protease GlpG (Escherichia coli (strain K12), UniProt P09391)"
value_measured = 131

[[record]]
molecule = "C[C@H](NC(=O)[C@H](Cc1c[nH]cn1)NC(=O)[C@H](CCCNC(=N)N)NC(=O)CCc1ccccc1)C(=O)C(=O)N[C@H](COCc1ccccc1)Cc1ccccc1"
target_desc = "Rhomboid protease GlpG (Escherichia coli (strain K12), UniProt P09391)"
value_measured = 424

[[record]]
molecule = "CC(=O)N[C@H](C(=O)N[C@@H](CCCNC(=N)N)C(=O)N[C@@H](Cc1c[nH]cn1)C(=O)N[C@@H](C)C(=O)C(=O)NCCCCc1ccccc1)C(C)C"
target_desc = "Rhomboid protease GlpG (Escherichia coli (strain K12), UniProt P09391)"
value_measured = 1470

[[record]]
molecule = "CC(=O)N[C@H](C(=O)N[C@@H](CCCNC(=N)N)C(=O)N[C@@H](Cc1c[nH]cn1)C(=O)N[C@@H](C)C(=O)C(=O)N[C@H](COCc1ccccc1)Cc1ccccc1)C(C)C"
target_desc = "Rhomboid protease GlpG (Escherichia coli (strain K12), UniProt P09391)"
value_measured = 173


I = CC(=O)N[C@H](C(=O)N[C@@H](CCCNC(=N)N)C(=O)N[C@@H](Cc1c[nH]cn1)C(=O)N[C@@H](C)C(=O)C(=O)NCCc1ccccc1)C(C)C
II = CC(C)CC(=O)N[C@@H](CCCNC(=N)N)C(=O)N[C@@H](Cc1c[nH]cn1)C(=O)N[C@@H](C)C(=O)C(=O)N[C@H](COCc1ccccc1)Cc1ccccc1
III = CC(=O)N[C@H](C(=O)N[C@@H](CCCNC(=N)N)C(=O)N[C@@H](Cc1c[nH]cn1)C(=O)N[C@@H](C)C(=O)C(=O)NC(CCCc1ccccc1)Cc1ccccc1)C(C)C (mixture of isomers)
Arrange by EC50, high to low. Provide your answer as the labels ordered per the instruction.
I, II, III
